List of Kd values.
- experimental.system: human CA-IX (Homo sapiens, UniProt Q16790)
- Construct: purchased Acro CA9-H82E3
- measurement.description: Surface Plasmon Resonance (SPR) binding kinetics to recombinant human CA-IX (Biacore 8K, single-cycle kinetics, 1:1 binding model)
- measurement.context: Chelated Metal: Lu-175; SPR, 25° C., pH 7.4; read-out: CAIX KD

Q. Can you share its Kd? I mean this compound: "NS(=O)(=O)c1nnc(NC(=O)C23CC(c4cn(CCNC(=O)[C@@H]5CN(C(=O)CN6CCN(CC(=O)O)CCN(CC(=O)O)CCN(CC(=O)O)CC6)CCN5C(=O)CNC(=O)C5(C(=O)O)CCN(C(=O)Cc6n[nH]c7ccccc67)CC5)nn4)(C2)C3)s1.[Lu+3]"
A. 1 to 2.5 nM

Q. Requested read-out: Kd. Entry: "NS(=O)(=O)c1nnc(NC(=O)C23CCC(c4cn(CCNC(=O)[C@@H]5CN(C(=O)CN6CCN(CC(=O)O)CCN(CC(=O)O)CCN(CC(=O)O)CC6)CCN5C(=O)CC[C@H](NC(=O)C[C@H](NC(=O)c5ccc(C6CC6)cc5)C(=O)O)C(=O)O)nn4)(CC2)CC3)s1.[Lu+3]"
A. < 1 nM

Q. Need Kd, item "NS(=O)(=O)c1nnc(NC(=O)C23CC(c4cn(CCNC(=O)[C@@H]5CN(C(=O)CN6CCN(CC(=O)O)CCN(CC(=O)O)CCN(CC(=O)O)CC6)CCN5C(=O)C[C@H](NC(=O)C[C@H](NC(=O)c5ccc(C6(C(F)(F)F)CC6)cc5)C(=O)O)C(=O)O)nn4)(C2)C3)s1.[Lu+3]"
A. 1 to 2.5 nM

Q. Given the compound "CC[C@H]1CN(CC(=O)O)[C@@H](CC)CN(CC(=O)N2CCN(C(=O)CNC(=O)C3(C(N)=O)CCN(C(=O)CCCC(C)(c4ccc(O)cc4)c4ccc(O)cc4)CC3)[C@H](C(=O)NCCn3cc(C45CC(C(=O)Nc6nnc(S(N)(=O)=O)s6)(C4)C5)nn3)C2)[C@@H](CC)CN(CC(=O)O)[C@@H](CC)CN1CC(=O)O.[Lu+3]" , what is its reported Kd?
A. < 1 nM

Q. Please give the measured Kd for this compound: "NS(=O)(=O)c1nnc(NC(=O)C23CCC(c4cn(CCNC(=O)[C@@H]5CN(C(=O)CN6CCN(CC(=O)O)CCN(CC(=O)O)CCN(CC(=O)O)CC6)CCN5C(=O)CC[C@H](NC(=O)C[C@H](NC(=O)CCC(F)(F)F)C(=O)O)C(=O)O)nn4)(CC2)CC3)s1.[Lu+3]"
A. < 1 nM

Q. What Kd value was documented for this compound, "NS(=O)(=O)c1nnc(NC(=O)C23CC(c4cn(CCNC(=O)[C@@H]5CN(C(=O)CN6CCN(CC(=O)O)CCN(CC(=O)O)CCN(CC(=O)O)CC6)CCN5C(=O)C[C@H](NC(=O)C[C@H](NC(=O)Cn5nc(-c6ccc(O)cc6)c6ccc(O)cc65)C(=O)O)C(=O)O)nn4)(C2)C3)s1.[Lu+3]" ?
A. < 1 nM

Q. Can you share its Kd? I mean this compound: "NS(=O)(=O)c1nnc(NC(=O)C23CCC(c4cn(CCNC(=O)[C@@H]5CN(C(=O)CN6CCN(CC(=O)O)CCN(CC(=O)O)CCN(CC(=O)O)CC6)CCN5C(=O)CC[C@H](NC(=O)C[C@H](NC(=O)Cc5[nH]nc6ccc(O)cc56)C(=O)O)C(=O)O)nn4)(CC2)CC3)s1.[Lu+3]"
A. < 1 nM

Q. Given the entry "NS(=O)(=O)c1nnc(NC(=O)C23CCC(c4cn(CCNC(=O)[C@@H]5CN(C(=O)CN6CCN(CC(=O)O)CCN(CC(=O)O)CCN(CC(=O)O)CC6)CCN5C(=O)CNC(=O)C5(C(=O)O)CCN(C(=O)CCCc6ccc(O)cc6)CC5)nn4)(CC2)CC3)s1.[Lu+3]" , report its measured Kd.
A. < 1 nM

Q. Using the record for "CC(CCC(=O)N[C@@H](CC(=O)N[C@@H](CC(=O)N[C@@H](CCCn1cc(C23CCC(C(=O)Nc4nnc(S(N)(=O)=O)s4)(CC2)CC3)nn1)C(=O)NCCOCCOCCNC(=O)CN1CCN(CC(=O)O)CCN(CC(=O)O)CCN(CC(=O)O)CC1)C(=O)O)C(=O)O)(c1ccc(O)cc1)c1ccc(O)cc1.[Lu+3]" , report its Kd.
A. < 1 nM

====

- experimental.system: human CA-IX (Homo sapiens)
- Construct: purchased Acro CA9-H82E3
- measurement.description: Surface Plasmon Resonance (SPR) binding kinetics to recombinant human CA-IX (Biacore 8K, single-cycle kinetics, 1:1 binding model)
- measurement.context: Chelated Metal: Lu-175; SPR, 25° C., pH 7.4; read-out: CAIX KD
- Procedure: G1. Surface Plasmon Resonance Assay Conditions for hCA-IX and hCA-XII Surface Plasmon Resonance (SPR) experiments were conducted on a Biacore 8K instrument (Cytiva, Marlborough, MA) to determine the binding kinetics of the compound to recombinant human CA-IX (Acro, CA9-H82E3) and CA-XII (Creative BioMart, CA12-261H) proteins. […]
readout.name: Kd

As a guide, the following entries are already answered.
Q. Endpoint output: Kd of "NS(=O)(=O)c1nnc(NC(=O)C23CCC(c4cn(CCNC(=O)[C@@H]5CN(C(=O)CN6CCN(CC(=O)O)CCN(CC(=O)O)CCN(CC(=O)O)CC6)CCN5C(=O)CC[C@H](NC(=O)C[C@H](NC(=O)CCC5CCCCCC5)C(=O)O)C(=O)O)nn4)(CC2)CC3)s1.[Lu+3]" . Value?
A. < 1 nM

Q. Consider the compound "NC(=O)C1(C(=O)NCC(=O)N2CCN(C(=O)CN3CCN(CC(=O)O)CCN(CC(=O)O)CCN(CC(=O)O)CC3)C[C@H]2C(=O)NCCn2cc(C34CC(C(=O)Nc5nnc(S(N)(=O)=O)s5)(C3)C4)nn2)CCN(C(=O)CCn2nc(-c3ccc(O)cc3)c3ccc(O)cc32)CC1.[Lu+3]" and give its measured Kd.
A. 1 to 2.5 nM

Others:
Q. Given "CC(CCCC(=O)N1CCC(C(N)=O)(C(=O)NCC(=O)N2CCN(C(=O)CCOCCOCCOCCOCCOCCOCCOCCOCCNC(=O)CN3CCN(CC(=O)O)CCN(CC(=O)O)CCN(CC(=O)O)CC3)C[C@H]2C(=O)NCCn2cc(C34CC(C(=O)Nc5nnc(S(N)(=O)=O)s5)(C3)C4)nn2)CC1)(c1ccc(O)cc1)c1ccc(O)cc1.[Lu+3]" , state its recorded Kd.
A. < 1 nM

====

- experimental.system: human CA-IX (Homo sapiens, UniProt Q16790)
- Construct: purchased Acro CA9-H82E3
- measurement.description: Surface Plasmon Resonance (SPR) binding kinetics to recombinant human CA-IX (Biacore 8K, single-cycle kinetics, 1:1 binding model)
- measurement.context: Chelated Metal: Cu (cold); SPR, 25° C., pH 7.4; read-out: CAIX KD
pKd: −log10 of the molar value.
readout.name: pKd

Q. What measured pKd goes with CC(CCCC(=O)N1CCC(C(N)=O)(C(=O)NCC(=O)N2CCN(C(=O)CN3CCN(CC(=O)O)CCN(CC(=O)O)CC3)C[C@H]2C(=O)NCCn2cc(C34CC(C(=O)Nc5nnc(S(N)(=O)=O)s5)(C3)C4)nn2)CC1)(c1ccc(O)cc1)c1ccc(O)cc1.[Cu+2] [Compound 126] ?
A. > 9.00

Q. Which value of pKd has been reported for NS(=O)(=O)c1nnc(NC(=O)C23CC(c4cn(CCNC(=O)[C@@H]5CN(C(=O)CN6CCN(CC(=O)O)CCN(CC(=O)O)CC6)CCN5C(=O)C[C@H](NC(=O)C[C@H](NC(=O)c5ccc(C6CC6)cn5)C(=O)O)C(=O)O)nn4)(C2)C3)s1.[Cu+2] [Compound 126.2] in the records?
A. > 9.00

// below: pKd requested for another compound
Q. Value lookup for pKd; key = CC(CCC(=O)N[C@@H](CC(=O)N[C@@H](CC(=O)N1CCN(C(=O)CN2CCN(CC(=O)O)CCN(CC(=O)O)CC2)C[C@H]1C(=O)NCCn1cc(C23CC(C(=O)Nc4nnc(S(N)(=O)=O)s4)(C2)C3)nn1)C(=O)O)C(=O)O)(c1ccc(O)cc1)c1ccc(O)cc1.[Cu+2] [Compound 126.4]
A. > 9.00

====

- experimental.system: human CA-XII (Homo sapiens, UniProt O43570)
- Construct: purchased Creative BioMart CA12-261H
- Sequence (O43570 25-354): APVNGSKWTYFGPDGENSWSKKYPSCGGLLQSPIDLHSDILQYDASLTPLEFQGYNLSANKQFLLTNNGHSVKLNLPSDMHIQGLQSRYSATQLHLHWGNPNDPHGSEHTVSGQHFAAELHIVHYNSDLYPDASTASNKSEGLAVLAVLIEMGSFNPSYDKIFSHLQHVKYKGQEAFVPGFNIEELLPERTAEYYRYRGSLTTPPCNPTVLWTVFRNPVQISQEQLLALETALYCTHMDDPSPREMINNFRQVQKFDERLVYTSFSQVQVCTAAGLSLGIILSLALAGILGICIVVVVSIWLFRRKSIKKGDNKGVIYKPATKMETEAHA
- measurement.description: Surface Plasmon Resonance (SPR) binding kinetics to recombinant human CA-XII (Biacore 8K, single-cycle kinetics, 1:1 binding model)
- measurement.context: Chelated Metal: Lu-175, 25° C., pH 7.4, read-out: CAXII KD
pKd: −log10 of the molar value.
Listed here: items and their measured pKd.

Q. Item under review: "CC(CCC(=O)N[C@@H](CC(=O)N[C@@H](CNC(=O)N1CCN(C(=O)CN2CCN(CC(=O)O)CCN(CC(=O)O)CCN(CC(=O)O)CC2)C[C@H]1C(=O)NCCn1cc(C23CC(C(=O)Nc4nnc(S(N)(=O)=O)s4)(C2)C3)nn1)C(=O)O)C(=O)O)(c1ccc(O)cc1)c1ccc(O)cc1.[Lu+3]" . Reported pKd?
A. 8.00 to 8.60

Below: the item to evaluate.
Q. pKd for "NS(=O)(=O)c1nnc(NC(=O)C23CCC(c4cn(CCNC(=O)[C@@H]5CN(C(=O)CN6CCN(CC(=O)O)CCN(CC(=O)O)CCN(CC(=O)O)CC6)CCN5C(=O)CC[C@H](NC(=O)C[C@H](NC(=O)CCC5CCCCCC5)C(=O)O)C(=O)O)nn4)(CC2)CC3)s1.[Lu+3]" ?
A. > 9.00
